Molecular target: Cynomolgus T cell receptor on cynomolgus primary T cells (cynomolgus monkey)
Assay: cell-based or functional assay
quantity.name: EC50 (M), KG-1a, Cynomolgus T cell mediated killing
Number in M, nothing else.

>>> measured("T017000634 (bispecific antibody, also called A0110056A10(E1D)-35GS-T0170056G05(L11V, D27Y, L34Y, M77T, K83R, V89L, F91Y, F95L, Y99W)-A) DVQLVESGGGLVQAGGSLRLSCAASGITSKINDMGWYRQTPGNYREWVASITATGTTNYRDSVKGRFTISRDNAKSTVYLQMNSLKPEDTTVYYCNTFPPISNFWGQGTLVTVSSGGGGSGGGGSGGGGSGGGGSGGGGSGGGGSGGGGSEVQLVESGGGVVQPGGSLRLSCVASGYVHKINFYGWYRQAPGKEREKVAHISIGDQTDYADSAKGRFTISRDESKNTVYLQMNSLRPEDTALYYCRALSRIWPYDYWGQGTLVTVSSA")
"2.7e-10"
>>> measured("T017000633 (bispecific antibody) DVQLVESGGGVVQPGGSLRLSCVASGYVHKINFYGWYRQAPGKEREKVAHISIGDQTDYADSAKGRFTISRDESKNTVYLQMNSLRPEDTALYYCRALSRIWPYDYWGQGTLVTVSSGGGGSGGGGSGGGGSGGGGSGGGGSGGGGSGGGGSEVQLVESGGGLVQAGGSLRLSCAASGITSKINDMGWYRQTPGNYREWVASITATGTTNYRDSVKGRFTISRDNAKSTVYLQMNSLKPEDTTVYYCNTFPPISNFWGQGTLVTVSSA")
"3.4e-10"
>>> measured("T017000128 (bispecific antibody) DVQLVESGGGLVQPGGSLRLSCVASGDVHKINFLGWYRQAPGKEREKVAHISIGDQTDYADSAKGRFTISRDESKNMVYLQMNSLKPEDTAVYFCRAFSRIYPYDYWGQGTLVTVSSGGGGSGGGGSGGGGSGGGGSGGGGSGGGGSGGGGSEVQLVESGGGLVQAGGSLRLSCAASGITSKINDMGWYRQTPGNYREWVASITATGTTNYRDSVKGRFTISRDNAKSTVYLQMNSLKPEDTTVYYCNTFPPISNFWGQGTLVTVSSA")
"6.7e-10"

**Q:** // returns reported EC50 (M), KG-1a, Cynomolgus T cell mediated killing for input T017000131 (bispecific antibody, also called A0110056A10(E1D)-35GS-T0170056G05-A) DVQLVESGGGLVQAGGSLRLSCAASGITSKINDMGWYRQTPGNYREWVASITATGTTNYRDSVKGRFTISRDNAKSTVYLQMNSLKPEDTTVYYCNTFPPISNFWGQGTLVTVSSGGGGSGGGGSGGGGSGGGGSGGGGSGGGGSGGGGSEVQLVESGGGLVQPGGSLRLSCVASGDVHKINFLGWYRQAPGKEREKVAHISIGDQTDYADSAKGRFTISRDESKNMVYLQMNSLKPEDTAVYFCRAFSRIYPYDYWGQGTLVTVSSA
**A:** 1.6e-09
